Test system: SK-MEL-5 melanoma
protocol: NCI tumour cell line growth inhibition, 48 h; in the data active = GI50 below about 0.43 µM; inactive = the rest
Field 'call' accepts label 1 = active, label 0 = inactive

Hello, I am checking results. What call was entered for CC(C)(C)NCC(O)c1ccccc1Cl (stereo not given) ?
label 0

Further cases:
Hello, I am checking results. What call was entered for "CCN1CCN(c2ccc(NC(=O)Nc3nc4ccc(-c5ccccc5OC)cc4s3)cc2)CC1" ?
label 0

Hello, I am checking results. What call was entered for "CCN1CCN(C(=O)[C@]23CC[C@@H](C)[C@H](C)[C@@H]2C2=CC[C@@H]4[C@@]5(C)CCC(=O)C(C)(C)[C@@H]5CC[C@@]4(C)[C@]2(C)CC3)CC1" ?
label 0

Hello, I am checking results. What call was entered for "NS(=O)(=O)c1ccc(-n2nc3c(c2-c2cccs2)Cc2ccccc2-3)cc1" ?
label 0

Hello, I am checking results. What call was entered for "CCN(CC)CCOc1nc2ccccc2c2c1-c1ccc(OC)cc1C2=O" ?
label 0

Hello, I am checking results. What call was entered for O=C1C=CC2C3C(=O)N(c4ccccc4)C(=O)C3C1N2Cc1ccccc1 (stereo not given) ?
label 0

Hello, I am checking results. What call was entered for CC(=O)C1=C(C)N(Cc2ccccc2)C2(O)C=CC(=O)C3=C(O)c4ccccc4C(=O)C312 (stereo not given) ?
label 0

###

Test system: SK-MEL-2 melanoma
protocol: NCI tumour cell line growth inhibition, 48 h
measuredEndpoint: TGI (µM)
Write the number in µM without appending the unit.

Worked cases, answers included:
Field request: TGI | item: "CCN(CC)CCOc1nc2ccccc2c2c1-c1ccc(OC)cc1C2=O"
4.36

Field request: TGI | item: "Cc1cc(I)cc(CN(C)CCCN2CCC(C)CC2)c1O"
33.9

Field request: TGI | item: "CN1CCN(Cc2ccc(NC(=O)c3cncc(C#Cc4ccc(N)nc4)c3)cc2C(F)(F)F)CC1"
1.36

Read the next record carefully.
Field request: TGI | item: Clc1ccc(C2SCc3nc4ccccc4n32)cc1 (configuration not stated)
33

###

Test system: RPMI-8226 leukemia
protocol: NCI tumour cell line growth inhibition, 48 h
measuredEndpoint: log10 TGI (log10 of the value in µM)
Lab note - TGI converted to log10 from values in µM.

Worked cases, answers included:
Field request: log10 TGI | item: Clc1ccc(C2SCc3nc4ccccc4n32)cc1 (configuration not stated)
1.64

Field request: log10 TGI | item: "COc1cc(/C=C2\[C@@H]3NC(Cc4c(OC)c(C)c(OC)c(OC)c43)C(=O)N2Cc2ccccc2)c(OC)c(C)c1OC"
1.96

Field request: log10 TGI | item: "Cc1cc2nc3c(C#N)c(C)c(CCCl)c(Cl)n3c2cc1C"
0.74

Field request: log10 TGI | item: CC1(C)C2CC3C(C)(C2)C31c1cc(Cl)ccc1N (configuration not stated)
1.48

Field request: log10 TGI | item: "Oc1ccc(-c2nc3cc(C(F)(F)F)ccc3s2)cc1"
1.55

Field request: log10 TGI | item: O=C1OC(OC/C(Br)=C(\Br)COC2OC(=O)C(Cl)=C2Cl)C(Cl)=C1Cl (configuration not stated)
0.60

Field request: log10 TGI | item: CC1=C(CCC(C)CO)O[C@H]2C[C@H]3[C@@H]4CC[C@H]5C[C@@H](O)CC[C@]5(C)[C@H]4CC(=O)[C@]3(C)[C@@H]12 (some centres not stated)
1.14

Field request: log10 TGI | item: "c1ccc2c(N=NSc3ncnc4nc[nH]c34)c3ccccc3nc2c1"
0.83

Field request: log10 TGI | item: COCC(C#N)NC1CC(OC2CC(O)(C(=O)CO)Cc3c(O)c4c(c(O)c32)C(=O)c2c(OC)cccc2C4=O)OC(C)C1O (configuration not stated)
0.06

Field request: log10 TGI | item: "OCc1ccc2c(c1)CC1(Cc3ccccc3C1)C2"
1.67

Further cases:
Field request: log10 TGI | item: C=CCC1(CN(C)C)CC/C(=C\c2ccc3c(c2)OCO3)C1=O (configuration not stated)
1.77

Field request: log10 TGI | item: "O=C(Nc1ccc(Cl)c(Cl)c1)c1ccc(NC2=C(Cl)C(=O)N(Cc3ccccc3)C2=O)cc1"
0.63

###

System: CCRF-CEM leukemia
protocol: NCI tumour cell line growth inhibition, 48 h; in the data active means GI50 below about 0.43 µM; inactive means the rest
Field 'call' accepts active, inactive

Hello, I am checking results. What call was entered for "CCN1CCN(c2ccc(NC(=O)Nc3nc4ccc(-c5ccccc5OC)cc4s3)cc2)CC1" ?
inactive

Now let's try a different one.
Hello, I am checking results. What call was entered for "Cn1nc(C(F)(F)F)cc1-c1cc(Cl)c(OCc2ccc(Cl)cc2)c(-c2ccc(Cl)c(C(F)(F)F)c2)c1O" ?
inactive

###

System: RXF 393 renal
protocol: NCI tumour cell line growth inhibition, 48 h
measuredEndpoint: TGI (µM)
Write the number in µM without appending the unit.

Field request: TGI | item: "C=CCc1c(O)c(C(=O)/C=C/c2ccc(Cl)cc2)c(OC)c2ccoc12"
3.6

Further cases:
Field request: TGI | item: Oc1c(C(Nc2ccccn2)c2ccccc2)ccc2cccnc12 (stereo unspecified)
40.1

Field request: TGI | item: "Oc1ccc(-c2nc3cc(C(F)(F)F)ccc3s2)cc1"
33.2

Field request: TGI | item: "Cc1cc(C)[n+]2c(c1)C=CC2"
25.1

###

Tested on: SNB-78 CNS
protocol: NCI tumour cell line growth inhibition, 48 h
Recorded TGI, one value per entry.

Worked cases, answers included:
Field request: TGI | item: "CC1(C)CC(=O)C(CC2C(=O)CCCC2=O)C(=O)C1"
> 100 µM

Field request: TGI | item: O=C(CC12C3C4C1C1C2C3C41CC(=O)NO)NO (stereo unspecified)
> 100 µM

Field request: TGI | item: "NC(=Nc1ccccc1)N/N=C/c1c[nH]c2ccccc12"
19.7 µM

Field request: TGI | item: COc1cc2c(cc1OC)C(Cl)C(c1ccc(Br)cc1)=C2Cl (stereo unspecified)
32.6 µM

Field request: TGI | item: "Cc1cc(-c2ccccc2)nc(Nc2cc3ccccc3[nH]2)n1"
> 100 µM

Read the next record carefully.
Field request: TGI | item: C/C(=N\N=C(N)N)C(CN1CCOCC1)C(c1ccccc1)c1c(O)c2ccccc2oc1=O (stereo unspecified)
> 100 µM

###

Recorded TGI, one value per entry.
System: NCI-H226 lung
protocol: NCI tumour cell line growth inhibition, 48 h
Write the number in µM without appending the unit.

Worked cases, answers included:
What value of TGI on NCI-H226 lung does "O=C(Nc1nc2c(C(F)(F)F)cccc2s1)c1cc(Cl)ccc1O" have?
1.31

What value of TGI on NCI-H226 lung does "Nc1nc(N)c2c(ccc3c2ccn3Cc2cccc([N+](=O)[O-])c2)n1" have?
2.42

Further cases:
What value of TGI on NCI-H226 lung does CC(=O)C1=C(C)N(Cc2ccccc2)C2(O)C=CC(=O)C3=C(O)c4ccccc4C(=O)C312 (stereo unspecified) have?
22.1

###

Test system: PC-3 prostate
protocol: NCI tumour cell line growth inhibition, 48 h; in the data active means GI50 below about 0.43 µM; inactive means the rest
Field 'call' accepts active, inactive

Completed entries (count: 3):
Hello, I am checking results. What call was entered for "CC(C)[C@@H](C(=O)O[C@@H]1/C=C/C(=O)O[C@@H](C)CCC/C=C/[C@@H]2C[C@H](O)C[C@H]21)N(C)C" ?
inactive

Hello, I am checking results. What call was entered for "O=C(Nc1cccc([N+](=O)[O-])c1)c1cccc(C(=O)Nc2cccc([N+](=O)[O-])c2)c1" ?
inactive

Hello, I am checking results. What call was entered for "COC(=O)Nc1nc2ccc(C(=O)c3cccc(I)c3)cc2[nH]1" ?
active

Further cases:
Hello, I am checking results. What call was entered for "O=C1/C=C/[C@@H](O)[C@@H]2C[C@@H](O)C[C@H]2/C=C/CCC[C@H](CCO)O1" ?
active

Hello, I am checking results. What call was entered for "CCC[CH2][Sn]1([CH2]CCC)[O]C(=O)c2cccc([N+](=O)[O-])c2C(=O)[O]1" ?
inactive

Hello, I am checking results. What call was entered for "CCOC(=O)C1=C(Nc2ccc(OC)cc2)C(N)=NC1=N" ?
inactive

Hello, I am checking results. What call was entered for NC1CC(=O)c2c(-c3cccs3)sc(-c3cccs3)c21 (stereo unspecified) ?
inactive

Hello, I am checking results. What call was entered for "Cc1cc(I)cc(CN(C)CCCN2CCC(C)CC2)c1O" ?
inactive

Hello, I am checking results. What call was entered for "COC(=O)[C@]1(C)CCC[C@@]2(C)C3=C(CC[C@H]12)C[C@@H](CC(OC(C)=O)OC(C)=O)[C@@H](C)C3" ?
inactive

Hello, I am checking results. What call was entered for "COc1c(C(N)=O)cc(-c2ccc(Cl)cc2)cc1-c1ccc(S(N)(=O)=O)cc1" ?
inactive

Hello, I am checking results. What call was entered for "CCC(=O)NC1=C(Cl)C(=O)C(NC(=O)CC)=C(Cl)C1=O" ?
inactive

// data source = PubChem BioAssay (NCI)
